Below, each entry is listed alongside its reported solubility.
measurement description: Solubility of salt forms in acetonitrile
Type: physicochemical
condition description: organic solvent or mixture, read-out: Solubility (Acetonitrile; mg/mL)
// units = mg/mL; emit number, no label

Answered examples (4):
compound: CC(=O)O.N=C(N)NCc1ccc(OCCCOS(=O)(=O)c2ccc(Br)cc2)c(Br)c1 [Acetate]
solubility / mg/mL: 0.4
//
compound: N=C(N)NCc1ccc(OCCCOS(=O)(=O)c2ccc(Br)cc2)c(Br)c1 [Phosphate]
solubility / mg/mL: 0.3
//
compound: N=C(N)NCc1ccc(OCCCOS(=O)(=O)c2ccc(Br)cc2)c(Br)c1.O=C(O)c1ccccc1 [Benzoate]
solubility / mg/mL: 1.5
//
compound: N=C(N)NCc1ccc(OCCCOS(=O)(=O)c2ccc(Br)cc2)c(Br)c1.O=C(O)C(F)(F)F [Trifluoroacetate]
solubility / mg/mL: 4.68

Attention now shifts to the item below.
// Input: CS(=O)(=O)O.N=C(N)NCc1ccc(OCCCOS(=O)(=O)c2ccc(Br)cc2)c(Br)c1 [Mesylate] . Output its solubility only.
1.28
